# experiment summary: activity coefficient (dimensionless); of the first substance listed, at infinite dilution; xn = mol fraction of the nth substance listed
# condition summary: 323.15 K; 101 kPa; Liquid; Chromatography; x1 = 0
measure name: activity coefficient

molecule="C/C=C/C=O [(E)-2-butenal] + O" obs_value=47
molecule="C=CC=O [2-propenal] + O" obs_value=24.1
molecule="CCCCO [butan-1-ol] + O" obs_value=69
molecule="CCCCC=O [pentanal] + O" obs_value=339

====

# experiment summary: activity coefficient (dimensionless); of the first substance listed, at infinite dilution; xn = mol fraction of the nth substance listed
# condition summary: 303.15 K; 101 kPa; Liquid; Chromatography; x1 = 0
activity coefficient values, listed per item
measure name: activity coefficient

compound="CCCCC=O [pentanal] + O" measure_name="activity coefficient" obs_value=260
compound="CCCCO [butan-1-ol] + O" measure_name="activity coefficient" obs_value=52
compound="C=CC=O [2-propenal] + O" measure_name="activity coefficient" obs_value=21.4
compound="c1ccoc1 [furan] + O" measure_name="activity coefficient" obs_value=397

====

# experiment summary: activity coefficient (dimensionless); of the first substance listed, at infinite dilution; xn = mol fraction of the nth substance listed
# condition summary: 308.15 K; 101 kPa; Liquid; Chromatography; x1 = 0
I'd appreciate it if you marked entries y when activity coefficient is lower than 60 and n when it is not.

compound="c1ccoc1 [furan] + O" classification=n
compound="C/C=C/C=O [(E)-2-butenal] + O" classification=y
compound="C=CC=O [2-propenal] + O" classification=y
compound="CCCCC=O [pentanal] + O" classification=n
compound="CCCCO [butan-1-ol] + O" classification=y

====

# experiment summary: activity coefficient (dimensionless); of the first substance listed, at infinite dilution; xn = mol fraction of the nth substance listed
# condition summary: 298.15 K; 101 kPa; Liquid; Chromatography; x1 = 0
activity coefficient values, listed per item
measure name: activity coefficient

compound="CCCCC=O [pentanal] + O" obs_value=220
compound="c1ccoc1 [furan] + O" obs_value=415
compound="C=CC=O [2-propenal] + O" obs_value=20.9
compound="C/C=C/C=O [(E)-2-butenal] + O" obs_value=39

====

# experiment summary: activity coefficient (dimensionless); of the first substance listed, at infinite dilution; xn = mol fraction of the nth substance listed
# condition summary: 328.15 K; 101 kPa; Liquid; Chromatography; x1 = 0
measure name: activity coefficient

compound="C/C=C/C=O [(E)-2-butenal] + O" obs_value=47.3
compound="C=CC=O [2-propenal] + O" obs_value=24.3
compound="CCCCO [butan-1-ol] + O" obs_value=72
compound="CCCCC=O [pentanal] + O" obs_value=350

====

activity coefficient values, listed per item
# experiment summary: activity coefficient (dimensionless); of the first substance listed, at infinite dilution; xn = mol fraction of the nth substance listed
# condition summary: 318.15 K; 101 kPa; Liquid; Chromatography; x1 = 0
measure name: activity coefficient

compound="CCCCO [butan-1-ol] + O" obs_value=64
compound="CCCCC=O [pentanal] + O" obs_value=324
compound="C=CC=O [2-propenal] + O" obs_value=24
compound="C/C=C/C=O [(E)-2-butenal] + O" obs_value=46.2

====

# experiment summary: activity coefficient (dimensionless); of the first substance listed, at infinite dilution; xn = mol fraction of the nth substance listed
# condition summary: 313.15 K; 101 kPa; Liquid; Chromatography; x1 = 0
activity coefficient values, listed per item
measure name: activity coefficient

compound="c1ccoc1 [furan] + O" measure_name="activity coefficient" obs_value=356
compound="CCCCC=O [pentanal] + O" measure_name="activity coefficient" obs_value=302
compound="CCCCO [butan-1-ol] + O" measure_name="activity coefficient" obs_value=58
compound="C/C=C/C=O [(E)-2-butenal] + O" measure_name="activity coefficient" obs_value=44.4
compound="C=CC=O [2-propenal] + O" measure_name="activity coefficient" obs_value=23.1
